- System: Hepatitis C virus
- Protocol Text: Antiviral activity against HCV1b harboring Q80K polymorphism in NS3 protease gene infected in human Huh7/Lunet cells assessed as inhibition of viral replication after 3 days by luciferase based transient-transfection assay
- Type: functional, organism-based, Hepacivirus hominis
- Measurement Conditions: genotype 1b, Huh-7, 72 h
Measured log10 EC50 values are reported for all entries that follow.
All values: log10 EC50 [nM].

Some compounds with recorded log10 EC50:
{"columns": ["Compound", "Measurement Name", "Result Number"],
 "data": [
  ["CC(C)(C)NC(=O)N[C@H](C(=O)N1C[C@H]2[C@@H]([C@H]1C(=O)NC(CC1CCC1)C(=O)C(N)=O)C2(C)C)C(C)(C)C (stereo not given in full)", "log10 EC50", 1.96],
  ["CCC[C@H](NC(=O)[C@@H]1[C@H]2CCC[C@H]2CN1C(=O)[C@@H](NC(=O)[C@@H](NC(=O)c1cnccn1)C1CCCCC1)C(C)(C)C)C(=O)C(=O)NC1CC1", "log10 EC50", 1.86],
  ["CC(C)(C)OC(=O)N[C@H]1CCCCC/C=C\\[C@@H]2C[C@@]2(C(=O)NS(=O)(=O)C2CC2)NC(=O)[C@@H]2C[C@@H](OC(=O)N3Cc4cccc(F)c4C3)CN2C1=O", "log10 EC50", -0.21],
  ["CC[C@@H]1C[C@]1(NC(=O)[C@@H]1C[C@@H]2CN1C(=O)[C@H](C(C)(C)C)NC(=O)OCC(C)(C)CCCCc1cccc3c1CN(C3)C(=O)O2)C(=O)NS(=O)(=O)C1CC1", "log10 EC50", -0.39]
]}

// switching to the query compound
Report log10 EC50, nothing else, for this compound: `COc1ccc2c(O[C@@H]3C[C@H]4C(=O)N[C@]5(C(=O)NS(=O)(=O)C6CC6)C[C@H]5/C=C\CCCCN(C)C(=O)[C@@H]4C3)cc(-c3nc(C(C)C)cs3)nc2c1C`
1.30
